# System: HOP-92 NSCLC
# assay.summary: NCI tumour cell line growth inhibition, 48 h; in the data active = GI50 below about 0.43 µM; inactive = the rest
Thanks in advance; please answer with one of these: active, inactive

Example cases with answers are listed next.
| molecule | answer.label |
| --- | --- |
| O=S(=O)(Nc1ccc(Cl)cc1Cl)c1ccc(-c2cnc(C3CC3)o2)cc1 | inactive |
| C#Cc1nc(Nc2cc(C)[nH]n2)c2ccccc2n1 | active |
| COc1cc(/C=C\c2cc(OC)c(OC)c(OC)c2)cc(N/C=C\C(=O)c2cc(OC)c(OC)c(OC)c2)c1OC | inactive |
| C/C(=N\NC(=S)N1CCCCCC1)c1ccccn1 | active |

Query :: Per the assay record, what outcome was assigned to CCc1ccc(/C=C/c2ccc(O)c3ncccc23)[n+](C)c1 ?
Result :: active

Query :: Per the assay record, what outcome was assigned to O=C1c2cccc3cccc(c23)C(=O)N1CCCCCN1CCN(CCCCCOc2ccc(-c3nc4ccc(N5CCOCC5)cc4[nH]3)cc2)CC1 ?
Result :: inactive

Query :: Per the assay record, what outcome was assigned to C[C@H](Nc1cc(Cl)nc2c1cnn2[C@@H]1O[C@H](COP(=O)(O)CP(=O)(O)O)[C@@H](O)[C@H]1O)c1ccccc1F ?
Result :: inactive

Query :: Per the assay record, what outcome was assigned to CN1CC[C@@H](c2c(O)cc(O)c3c(=O)cc(-c4ccc(C(F)(F)F)cc4Cl)oc23)[C@@H]1CO ?
Result :: inactive

Query :: Per the assay record, what outcome was assigned to COc1ccc(C2=C(c3ccc(OC)cc3)C(=O)N3CCCC3C2)cc1 (centres undefined) ?
Result :: inactive

* * *

# Test system: U251 CNS
# assay.summary: NCI tumour cell line growth inhibition, 48 h
test.readout: TGI (µM)
Write it as a number; the unit µM goes unstated.

Query :: Which TGI reading was recorded for the compound CC(C)=CCC/C(C)=C/CC/C(C)=C/CC(CO)N(C)CC/C=C(\C)CCC=C(C)C (stereo unspecified) ?
Result :: 14.5

Query :: Which TGI reading was recorded for the compound CN(C)C(=S)Sc1ccc([N+](=O)[O-])cc1[N+](=O)[O-] ?
Result :: 8.97

Query :: Which TGI reading was recorded for the compound N=C1C(=N)c2ccccc2-c2ccccc21.N=C1C(=N)c2ccccc2-c2ccccc21.N=C1C(=N)c2ccccc2-c2ccccc21.[Cl-].[Ru+2] ?
Result :: 3.08

* * *

# Test system: 786-0 renal
# assay.summary: NCI tumour cell line growth inhibition, 48 h; in the data active = GI50 below about 0.43 µM; inactive = the rest
Thanks in advance; please answer with one of these: T for active, F for inactive

| smiles.representation | answer.label |
| --- | --- |
| C/C(=N\NC(=S)N1CCCCCC1)c1ccccn1 | T |

Query :: Per the assay record, what outcome was assigned to CN(C)C(=S)Sc1ccc([N+](=O)[O-])cc1[N+](=O)[O-] ?
Result :: F

* * *

# Test system: HCT-116 colon
# assay.summary: NCI tumour cell line growth inhibition, 48 h
test.readout: GI50

| compound | GI50 |
| --- | --- |
| CN(C)C(=S)Sc1ccc([N+](=O)[O-])cc1[N+](=O)[O-] | 1.54 µM |
| COc1ccc(C2=C(c3ccc(OC)cc3)C(=O)N3CCCC3C2)cc1 (stereo not given) | 2.96 µM |

Query :: Which GI50 reading was recorded for the compound COc1ccccc1Nc1ncc(-c2ccccc2)o1 ?
Result :: > 25 µM

Query :: Which GI50 reading was recorded for the compound CSc1nc(NC2OC(COC(C)=O)C(OC(C)=O)C(OC(C)=O)C2OC(C)=O)c(N=CC=Nc2c(NC3OC(COC(C)=O)C(OC(C)=O)C(OC(C)=O)C3OC(C)=O)nc(SC)n(C)c2=O)c(=O)n1C (stereo not given) ?
Result :: > 50 µM

Query :: Which GI50 reading was recorded for the compound O=C(Nc1cc(C(F)(F)F)ccc1Cl)c1cccc(NC2=C(Cl)C(=O)N(Cc3ccccc3)C2=O)c1 ?
Result :: 10.3 µM
